- Experimental Target: T1, Recombinant Human FGFR2 alpha (IIIc) Fc Chimera Protein, CF (R&D systems, 712-FR-050) (human, UniProt P21802 22-377)
- T1 construct: bought; not shown: Fc part of the chimera
- T1 sequence (P21802 22-377, change not shown): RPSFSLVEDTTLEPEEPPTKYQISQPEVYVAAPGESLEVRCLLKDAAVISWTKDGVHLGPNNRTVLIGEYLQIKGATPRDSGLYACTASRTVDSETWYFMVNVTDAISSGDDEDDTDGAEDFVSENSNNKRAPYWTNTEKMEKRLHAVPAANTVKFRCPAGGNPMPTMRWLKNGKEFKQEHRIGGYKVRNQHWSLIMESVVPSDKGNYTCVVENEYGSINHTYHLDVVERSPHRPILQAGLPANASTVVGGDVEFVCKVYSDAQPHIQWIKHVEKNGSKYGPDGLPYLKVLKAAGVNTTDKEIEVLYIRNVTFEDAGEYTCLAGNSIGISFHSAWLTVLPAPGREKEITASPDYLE
- Assay Method Text: ELISA on plate-bound FGFR2-Fc
Bridge positions count the residues as written; N and C are the ends. Ends that are not written are not given here. COCH2 = acetyl group that carries the bridge
Endpoint: ELISA luminescence signal at 10 nmol/L peptide, relative to SEQ ID NO: 47 (=1)

Answered cases to consult:
1) WCQESSNYLAPLQWYFFNWYK(COCH2)T (thioether 2-21 (inferred)) [cyclic peptide SEQ ID NO: 410] | ≥ 0.7 ratio
2) LCNNWENYFDWLQWSYYIAYK(COCH2)E (thioether 2-21 (inferred)) [cyclic peptide SEQ ID NO: 409] | ≥ 0.7 ratio

-- ask Requested field: ELISA luminescence signal at 10 nmol/L peptide, relative to SEQ ID NO: 47 (=1). Item: YCEENYLDPVQYQYFIYFK(COCH2)Y (thioether 2-19 (inferred)) [cyclic peptide SEQ ID NO: 240]
-- reply ≥ 0.7 ratio

-- ask Requested field: ELISA luminescence signal at 10 nmol/L peptide, relative to SEQ ID NO: 47 (=1). Item: GCEENYLDPEQYQYFIYFK(COCH2)Y (thioether 2-19) [cyclic peptide SEQ ID NO: 136]
-- reply ≥ 0.7 ratio

-- ask Requested field: ELISA luminescence signal at 10 nmol/L peptide, relative to SEQ ID NO: 47 (=1). Item: KCPQNFINPAQWRYFQHYKN (not fully specified; thioether ring (C)-(K(acetyl))) [cyclic peptide SEQ ID NO: 61]
-- reply ≥ 0.7 ratio

// provenance: patent US20260008815A1
